TARGET OF ASSAY: UniProtKB Q97SR4
Sequence (Q97SR4 1-252): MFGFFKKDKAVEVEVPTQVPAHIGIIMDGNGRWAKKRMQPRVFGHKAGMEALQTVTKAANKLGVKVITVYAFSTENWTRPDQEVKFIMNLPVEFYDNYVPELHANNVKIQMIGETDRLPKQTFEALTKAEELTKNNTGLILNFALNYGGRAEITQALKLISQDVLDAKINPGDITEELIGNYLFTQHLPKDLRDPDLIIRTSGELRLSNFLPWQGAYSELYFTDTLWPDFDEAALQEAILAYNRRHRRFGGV
pIC50: −log10 of the molar value.
Some compounds, each annotated with its measured pIC50.
OBSERVATION TYPE: pIC50

1) N#Cc1ccc(-c2ccc(NC(=O)C3=C(O)C(Cc4ccccc4)NC3=O)cc2)cc1 (centres unmarked) [compound 66] ... 5.00 to 8.00
2) O=C(Nc1ccc(C2CCCCC2)cc1)C1=C(O)CC(C2CCCCC2)NC1=O (centres unmarked) [compound 185] ... 5.00 to 8.00
3) CC(C)CC1NC(=O)C(C(=O)Nc2ccc(Oc3ccccc3)cc2)=C1O (centres unmarked) [compound 123] ... 5.00 to 8.00
4) O=C(Nc1ccc(N2CCCCC2)cc1)C1=C(O)CC(Cc2ccccc2)NC1=O (centres unmarked) [compound 174] ... 5.00 to 8.00
5) O=C(Nc1ccc(-c2ccccc2)cc1)C1=C(O)CC(c2ccccc2)NC1=O (centres unmarked) [compound 169] ... 5.00 to 8.00
6) CCCCCCOc1ccc(NC(=O)C2=C(O)C(CCc3ccccc3)NC2=O)cc1 (centres unmarked) [compound 77] ... 5.00 to 8.00
7) CC1CC(O)=C(C(=O)Nc2ccc(Oc3ccccc3)cc2)C(=O)N1 (centres unmarked) [compound 223] ... < 4.30
8) COc1ccc(-c2nc(NC(=O)C3=C(O)CC(Cc4ccccc4)NC3=O)nn2-c2ccc(CO)cc2)cc1 (centres unmarked) [compound 177] ... 5.00 to 8.00
9) O=C(Nc1ccc(N2CCCCC2)cc1)C1=C(O)C(CCc2ccccc2)NC1=O (centres unmarked) [compound 143] ... 5.00 to 8.00
10) Cc1ccc2nc(-c3ccc(NC(=O)C4=C(O)C(Cc5ccccc5)NC4=O)cc3)sc2c1 (centres unmarked) [compound 4] ... 4.30 to 5.00
11) O=C(Nc1ccc(-n2cccn2)cc1)C1=C(O)CC(c2ccccc2)NC1=O (centres unmarked) [compound 181] ... 5.00 to 8.00
12) Cc1ccc2nc(-c3ccc(NC(=O)C4=C(O)C(c5ccccc5)NC4=O)cc3)sc2c1 (centres unmarked) [compound 6] ... 5.00 to 8.00
13) O=C(Nc1ccc(N2CCCCC2)cc1)C1=C(O)CC(c2ccccc2)NC1=O (centres unmarked) [compound 168] ... 5.00 to 8.00
14) O=C(Nc1ccc(Nc2ccccc2)cc1)C1=C(O)C(CC2CCCCC2)NC1=O (centres unmarked) [compound 103] ... 5.00 to 8.00
15) CC(C)CC1CC(O)=C(C(=O)Nc2ccc(-n3cccn3)cc2)C(=O)N1 (centres unmarked) [compound 192] ... 5.00 to 8.00
16) O=C(Nc1ccc(C2CCCCC2)cc1)C1=C(O)C(c2ccccc2)NC1=O (centres unmarked) [compound 56] ... 5.00 to 8.00
17) O=C(NCCSCc1c(Cl)cccc1Cl)C1=C(O)C(Cc2ccccc2)NC1=O (centres unmarked) [compound 54] ... 4.30 to 5.00

These measurements were taken from patent US20090203694A1.
